study-target: 5-hydroxytryptamine receptor 1A (Rattus norvegicus)
Sequence (P19327 whole entry): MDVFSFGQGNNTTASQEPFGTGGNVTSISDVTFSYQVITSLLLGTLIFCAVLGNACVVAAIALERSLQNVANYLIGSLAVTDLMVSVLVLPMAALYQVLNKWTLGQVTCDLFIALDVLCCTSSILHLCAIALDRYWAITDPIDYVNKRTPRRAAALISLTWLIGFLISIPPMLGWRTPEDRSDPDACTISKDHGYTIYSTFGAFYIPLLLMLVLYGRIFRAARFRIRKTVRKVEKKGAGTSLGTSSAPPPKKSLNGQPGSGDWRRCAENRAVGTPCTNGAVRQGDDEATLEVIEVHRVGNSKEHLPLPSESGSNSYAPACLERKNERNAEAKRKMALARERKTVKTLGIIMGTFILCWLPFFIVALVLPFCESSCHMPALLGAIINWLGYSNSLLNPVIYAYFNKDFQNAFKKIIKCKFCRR
Ki values for the compounds below.
Express the result in nM but write the number alone.

Q. Form field: reported Ki of "CC(C)Oc1ccccc1N1CCN(Cc2ccc(C(=O)N3CCCCC3)cc2)CC1"
A. 560

Here is the next item to consider.
Q. Form field: reported Ki of "CC(C)Oc1ccccc1N1CCN(Cc2ccccc2C(=O)N2CCCCC2)CC1"
A. 6.8
